Please go through the items and note down their Kd.
- TEST TARGET: T1, Cathepsin G (CATG) (human, UniProt P08311 21-244)
- T1 sequence: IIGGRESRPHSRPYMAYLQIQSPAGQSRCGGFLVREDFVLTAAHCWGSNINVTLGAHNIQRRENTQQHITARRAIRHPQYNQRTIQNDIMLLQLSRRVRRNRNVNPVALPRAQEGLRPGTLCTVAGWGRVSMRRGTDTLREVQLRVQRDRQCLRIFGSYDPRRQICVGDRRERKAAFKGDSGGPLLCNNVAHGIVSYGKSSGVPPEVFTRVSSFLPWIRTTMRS
- ASSAY SUMMARY: fluorescence polarization
Reply with the number, then its unit.

Form field: reported Kd of TCTGTGAGTTGAACGCACACATCACAAAGGAG (ssDNA) [BB94 ssDNA]
22 nM

Here is the next binder: CCCAAGCUUAUUUAUUUAUUUAUUGCAGGUC (ssRNA) [AU RNA]
165 nM

One more binder: BB94 dsDNA (dsDNA) DNA 1: TCTGTGAGTTGAACGCACACATCACAAAGGAG DNA 2: CTCCTTTGTGATGTGTGCGTTCAACTCACAGA
35 nM
